All figures here come from paper PMC9025336.

Target: 70S ribosome extract of E. coli BW25113 (E. coli BW25113 (endogenous))
Assay: fluorescence polarisation; competition: unlabeled peptide (2-fold series from 656 µmol/L) pre-incubated with BW25113 ribosome extract (28 °C, 90 min), then cf-Onc112 (10 µL, 80 nmol/L) added (28 °C, 90 min); ribosome preparation buffer; Ki calculated from IC50
Square brackets hold non-standard residues; d marks the D form. Ends that are not written are not given here.
Measurement label: Ki (nM)

                                   binder  measurement_label  numeric_result
0  VDKPPYLPRPRPPR[dR]IYN[dR]-NH2 [Onc112]                 Ki               8
1          GNNRPIYIPRPRPPHPRL-OH [Api801]                 Ki             247
2       GNNRPIYIPRPRPPHPRPIRV-OH [Api805]                 Ki             489
